Overview of reported shrunken log2 fold change across a group of sequences:
Test system: Escherichia coli TOP10;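 also: peptides expressed intracellularly from a pBAD plasmid library in pooled LB shake-flask culture, induced with 0.3% L-arabinose, DNA abundance read by NGS, three biological replicates, DESeq2 with apeglm shrinkage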
Method: shrunken log2 fold change of peptide-encoding DNA abundance (4.5 h post-induction vs induction); higher = less antimicrobial activity (less host growth inhibition)
Assay conditions: time post-induction: 4.5 h; library: site-saturation at positions 5, 18, 19, 20

Seq text: RRIRGRPPRLPRPRPRPCFHPRP
shrunken log2 fold change: -0.011

Seq text: RRIRARPPRLPRPRPRPECYPRP
shrunken log2 fold change: 0.361

Seq text: RRIRPRPPRLPRPRPRPKWTPRP
shrunken log2 fold change: -0.0336

Seq text: RRIRHRPPRLPRPRPRPCCFPRP
shrunken log2 fold change: -0.245

Seq text: RRIRMRPPRLPRPRPRPQRLPRP
shrunken log2 fold change: 0.294

Seq text: RRIRTRPPRLPRPRPRPNRVPRP
shrunken log2 fold change: -0.0472

Seq text: RRIRPRPPRLPRPRPRPSQRPRP
shrunken log2 fold change: 0.229

Seq text: RRIRPRPPRLPRPRPRPNFLPRP
shrunken log2 fold change: 0.0421

Seq text: RRIRARPPRLPRPRPRPWPYPRP
shrunken log2 fold change: -0.144

Seq text: RRIRKRPPRLPRPRPRPSNKPRP
shrunken log2 fold change: 0.0208

Seq text: RRIRNRPPRLPRPRPRPAACPRP
shrunken log2 fold change: -0.0409

Seq text: RRIRRRPPRLPRPRPRPRLEPRP
shrunken log2 fold change: 0.508

Seq text: RRIRNRPPRLPRPRPRPLLIPRP
shrunken log2 fold change: 0.589

Seq text: RRIRMRPPRLPRPRPRPMPYPRP
shrunken log2 fold change: 0.018

Seq text: RRIRRRPPRLPRPRPRPGLLPRP
shrunken log2 fold change: 0.0882

Seq text: RRIRWRPPRLPRPRPRPESPPRP
shrunken log2 fold change: 0.637

Seq text: RRIRSRPPRLPRPRPRPPHRPRP
shrunken log2 fold change: 0.182

Seq text: RRIRRRPPRLPRPRPRPPQWPRP
shrunken log2 fold change: 0.66

Seq text: RRIRTRPPRLPRPRPRPWAFPRP
shrunken log2 fold change: -0.185
